Reference source for all entries: patent US20240182536A1

system: T1, interleukin 18 binding protein (IL-18BP) (UniProt O95998 31-194); also: unit not given here
T1 sequence (looked up): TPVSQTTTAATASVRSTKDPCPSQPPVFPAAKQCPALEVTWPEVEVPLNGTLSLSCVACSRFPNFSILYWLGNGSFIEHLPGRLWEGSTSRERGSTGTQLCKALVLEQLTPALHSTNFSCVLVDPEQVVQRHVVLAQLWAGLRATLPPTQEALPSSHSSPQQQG
methodNotes: cell-based or functional assay
Output satisfied for records whose HEK-Blue activity, +100 nM BP, DF-10000 is lower than 0.1, not satisfied for records at or above 0.1.

{"binder": "IL-18 variant D23G, K53Y, S55Y (ligand) YFGKLESKLSVIRNLNDQVLFIGQGNRPLFEDMTDSDMRDNAPRTIFIISMYYDYQPRGMAVTISVKSEKISTLSSENKIISFKEMNPPDNIKDTKSDIIFFQRSVPGHDNKMQFESSSYEGYFLASEKERDLFKLILKKEDELGDRSIMFTVQNED", "assignedCategory": "not satisfied"}
{"binder": "IL-18 variant T34S, S36Y, D37N, D40E, N41Q, K53Y, S55I (ligand) YFGKLESKLSVIRNLNDQVLFIDQGNRPLFEDMSDYNMREQAPRTIFIISMYYDIQPRGMAVTISVKSEKISTLSSENKIISFKEMNPPDNIKDTKSDIIFFQRSVPGHDNKMQFESSSYEGYFLASEKERDLFKLILKKEDELGDRSIMFTVQNED", "assignedCategory": "satisfied"}
{"binder": "IL-18 variant K53G, S55I, R104K, P107Y (ligand) YFGKLESKLSVIRNLNDQVLFIDQGNRPLFEDMTDSDMRDNAPRTIFIISMYGDIQPRGMAVTISVKSEKISTLSSENKIISFKEMNPPDNIKDTKSDIIFFQKSVYGHDNKMQFESSSYEGYFLASEKERDLFKLILKKEDELGDRSIMFTVQNED", "assignedCategory": "not satisfied"}
{"binder": "IL-18 variant T34M, S36T, D37E, D40T, N41M, K53T, S55W (ligand) YFGKLESKLSVIRNLNDQVLFIDQGNRPLFEDMMDTEMRTMAPRTIFIISMYTDWQPRGMAVTISVKSEKISTLSSENKIISFKEMNPPDNIKDTKSDIIFFQRSVPGHDNKMQFESSSYEGYFLASEKERDLFKLILKKEDELGDRSIMFTVQNED", "assignedCategory": "not satisfied"}
{"binder": "IL-18 variant S36E, D37E, D40V, N41S, K53Y, S55V, H109Y (ligand) YFGKLESKLSVIRNLNDQVLFIDQGNRPLFEDMTDEEMRVSAPRTIFIISMYYDVQPRGMAVTISVKSEKISTLSSENKIISFKEMNPPDNIKDTKSDIIFFQRSVPGYDNKMQFESSSYEGYFLASEKERDLFKLILKKEDELGDRSIMFTVQNED", "assignedCategory": "satisfied"}

Now consider a different binder.
Please determine if IL-18 variant K53T, S55G, P107A, H109Q (ligand) YFGKLESKLSVIRNLNDQVLFIDQGNRPLFEDMTDSDMRDNAPRTIFIISMYTDGQPRGMAVTISVKSEKISTLSSENKIISFKEMNPPDNIKDTKSDIIFFQRSVAGQDNKMQFESSSYEGYFLASEKERDLFKLILKKEDELGDRSIMFTVQNED is below 0.1 in terms of HEK-Blue activity, +100 nM BP, DF-10000.
not satisfied
